- Tested on: P. falciparum
- protocol.text: Growth inhibition of P. falciparum lines by chloroquine
- Type: cell-based
- condition.label: Plasmodium falciparum, read-out: chloroquine IC50 (95% CI), parasites expressing CH49Y
pIC50: −log10 of the molar value.
observable: pIC50

Kindly note the recorded pIC50 for CCN(CC)CCCC(C)Nc1ccnc2cc(Cl)ccc12 (stereo not shown) , which is 7.95 to 7.99
